TARGET DESC: IMP-1 (Serratia marcescens, UniProt P52699)
Sequence (P52699 whole entry, looked up): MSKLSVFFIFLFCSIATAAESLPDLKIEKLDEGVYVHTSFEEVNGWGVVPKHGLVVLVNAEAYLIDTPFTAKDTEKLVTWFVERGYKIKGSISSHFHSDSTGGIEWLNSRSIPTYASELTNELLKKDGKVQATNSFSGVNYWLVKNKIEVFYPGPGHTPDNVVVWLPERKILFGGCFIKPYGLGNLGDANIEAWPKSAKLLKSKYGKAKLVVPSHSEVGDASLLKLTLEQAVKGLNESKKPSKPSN
PROTOCOL: biochemical
Type: biochemical
CONDITION CONTEXT: IMP-1 enzyme, CCF2-FA fluorescence assay; read-out: IMP-1 IC50
pIC50: −log10 of the molar value.
Known pIC50 of a selection of molecules

COMPOUND SMILES | pIC50
NS(=O)(=O)c1cccc(-c2ccc3nccn3c2)c1-c1nn[nH]n1 | 6.53
CNCc1ccc(-c2cccc(S(N)(=O)=O)c2-c2nnn[nH]2)cc1 | 6.41
CS(=O)(=O)c1nc2cc(Cl)c(-c3cccc(S(N)(=O)=O)c3-c3nn[nH]n3)cc2[nH]1 | 6.27
CC(C)(O)C1CN(Cc2ccc(-c3cccc(S(N)(=O)=O)c3-c3nnn[nH]3)cc2)C1 | 6.42
Cc1ccc(-c2cc(-c3ccc(C(N)=O)cc3)cc(S(N)(=O)=O)c2-c2nn[nH]n2)cc1 | 7.26
NS(=O)(=O)c1cccc(-c2ccc(N3CCOCC3)nc2)c1-c1nn[nH]n1 | 7.15
COc1cccc(S(N)(=O)=O)c1-c1nnn[nH]1 | 5.08
NS(=O)(=O)c1cccc(-c2cnc3n2CCCC3)c1-c1nnn[nH]1 | 5.98
